Answer each item with its documented CM % Agonism AVG.
Target Or System: ErbB4 on neonatal rat cardiomyocytes (rat) (UniProt Q62956)
Sequence (Q62956 26-1308): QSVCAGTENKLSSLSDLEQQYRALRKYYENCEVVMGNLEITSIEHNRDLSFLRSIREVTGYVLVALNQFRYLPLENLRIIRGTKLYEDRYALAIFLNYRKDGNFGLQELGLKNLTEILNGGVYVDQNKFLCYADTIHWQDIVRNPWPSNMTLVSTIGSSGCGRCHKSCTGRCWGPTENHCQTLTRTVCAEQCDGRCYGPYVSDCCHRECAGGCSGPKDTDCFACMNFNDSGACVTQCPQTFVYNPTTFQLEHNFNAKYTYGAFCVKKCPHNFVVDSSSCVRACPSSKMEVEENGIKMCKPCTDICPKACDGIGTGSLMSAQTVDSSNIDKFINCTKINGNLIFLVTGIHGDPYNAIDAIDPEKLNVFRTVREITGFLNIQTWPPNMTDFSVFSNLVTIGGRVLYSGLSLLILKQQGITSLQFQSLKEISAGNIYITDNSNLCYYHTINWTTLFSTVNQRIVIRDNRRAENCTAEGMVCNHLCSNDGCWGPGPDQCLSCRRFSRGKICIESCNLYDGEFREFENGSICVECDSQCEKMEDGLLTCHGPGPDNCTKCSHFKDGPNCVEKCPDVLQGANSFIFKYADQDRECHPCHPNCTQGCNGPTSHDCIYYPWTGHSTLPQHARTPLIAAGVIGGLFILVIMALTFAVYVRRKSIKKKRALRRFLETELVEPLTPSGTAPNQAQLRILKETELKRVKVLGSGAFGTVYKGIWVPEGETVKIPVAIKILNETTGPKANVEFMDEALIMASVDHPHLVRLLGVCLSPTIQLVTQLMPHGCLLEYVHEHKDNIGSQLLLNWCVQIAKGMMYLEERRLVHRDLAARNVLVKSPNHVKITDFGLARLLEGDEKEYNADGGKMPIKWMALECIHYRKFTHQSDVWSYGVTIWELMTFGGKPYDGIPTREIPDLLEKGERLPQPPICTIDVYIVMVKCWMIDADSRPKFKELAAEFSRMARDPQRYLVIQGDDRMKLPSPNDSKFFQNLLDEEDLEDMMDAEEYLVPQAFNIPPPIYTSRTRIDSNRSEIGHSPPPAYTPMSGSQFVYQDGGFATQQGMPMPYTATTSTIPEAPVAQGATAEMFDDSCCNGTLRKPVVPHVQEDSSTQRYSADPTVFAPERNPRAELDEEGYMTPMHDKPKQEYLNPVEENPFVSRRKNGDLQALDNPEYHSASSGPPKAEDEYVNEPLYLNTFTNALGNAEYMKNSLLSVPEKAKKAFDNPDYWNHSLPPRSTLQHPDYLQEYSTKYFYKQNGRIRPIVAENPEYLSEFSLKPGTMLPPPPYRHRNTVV
Assay Explanation: cell-based or functional assay
Write down the numeric answer in % and omit the unit.

Task: Suppose we examine the binder huNRG1(S177-Q237)(NRGE1K)::GG::huFcSEFL2 (Pb) (Fc fusion) SHLVKCAEKHKSFCVNGGECFMIEGPSNPSRYLCKCPNEFTGDRCQDDFMASFYKAEELYQGGDKTHTCPPCPAPELLGGPSVFLFPPKPKDTLMISRTPEVTCVVVDVSHEDPEVKFNWYVDGVEVHNAKTKPCEEQYGSTYRCVSVLTVLHQDWLNGKEYKCKVSNKALPAPIEKTISKAKGQPREPQVYTLPPSREEMTKNQVSLTCLVKGFYPSDIAVEWESNGQPENNYKTTPPVLDSDGSFFLYSKLTVDKSRWQQGNVFSCSVMHEALHNHYTQKSLSLSPGK ; what CM % Agonism AVG value has been reported?
Result: 66

Task: What CM % Agonism AVG value was documented for this binder, huNRG1(S177-F229)(NRGE1C) (E47S_D48A_F49L_M50T) 6xHis (ligand) SHLVKCGEKHKSFCVNGGECFMIEGPSNPSRYLCKCPNEFTGDRCQSALTASFGGGGEGGGGAGGGGHHHHHH ?
Result: 85.9

Task: Return reported CM % Agonism AVG; argument: huNRG1(S177-Q237)(NRGE1H)::GG::huFcSEFL2 (Pb) (Fc fusion) SHLVKCGESHKSFCVNGGECFMIEGPSNPSRYLCKCPNEFTGDRCQNDFMASFYKAEELYQGGDKTHTCPPCPAPELLGGPSVFLFPPKPKDTLMISRTPEVTCVVVDVSHEDPEVKFNWYVDGVEVHNAKTKPCEEQYGSTYRCVSVLTVLHQDWLNGKEYKCKVSNKALPAPIEKTISKAKGQPREPQVYTLPPSREEMTKNQVSLTCLVKGFYPSDIAVEWESNGQPENNYKTTPPVLDSDGSFFLYSKLTVDKSRWQQGNVFSCSVMHEALHNHYTQKSLSLSPGK
Result: 88

From: patent US20220402985A1
